- test: small-molecule binders of probe aLefty1, primary screen, biochemical, small-molecule microarray, 635/667 nm fluorescence (AID 1153);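 note: score merges spot fluorescence with signal-to-noise ratio from the scanned slide images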
- condition_info: higher = more signal
// values below are reported composite z-score
Give your answer as a number; write no unit.

Some compounds with known composite z-score results, for comparison:
COCCOC(=O)N1C(=O)[C@@]2(c3cc(C#CC4=CCCCC4)ccc31)[C@H](c1ccccc1OCCO)N1[C@H](c3ccccc3)[C@H](c3ccccc3)OC(=O)[C@H]1[C@@H]2C(=O)N1CCCCCCC1 -0.999
CC(C)Cc1ccc(CN2CC[C@@H](NC(=O)Nc3ccccc3)C2)cc1 -0.191
COC(=O)[C@@]1(Cc2ccccc2N=[N+]=[N-])N=C(c2ccc(OCCCO)cc2)O[C@H]1c1ccccc1N=[N+]=[N-] 0.373
CCOC(=O)[C@H]1[C@@H]2C(=O)N3CCC[C@H]3[C@H](O[Si](C(C)C)(C(C)C)C(C)C)[C@H]2C=C2CCN(S(=O)(=O)c3ccc(C)cc3)C[C@H]21 -0.202
CC(C)C[C@@H]1NC(=O)[C@@H]2C[C@H](C(=O)NCCCCN(C)C)[C@H](c3cccc(OCCO)c3)N2C1=O 0.0945

We now examine a further compound.
Lookup: Returns the measured composite z-score for the input compound. Input: COc1ccc([Si](C)(C)[C@@H]2[C@@H](CC(=O)N3Cc4ccccc4C[C@H]3CO)O[C@]3(C(=O)N(Cc4cccc(N5C(=O)c6cccc7cccc5c67)c4)c4ccccc43)[C@H]2C)cc1
Found: -0.0601
